- Test system: A549
- assay.procedure: NCI tumour cell line growth inhibition, 48 h
The source made the active and inactive calls. Cut-off read from the data, not from the text of the source: active = GI50 up to about 1.1 µM and inactive = higher.
Possible outcomes: Y = active, N = inactive

> print(dat)
                                    molecule  class
 1  Cc1ccc(O)c(C2=NNC(c3cccc(Br)c3)C2)c1 (stereo unspecified)      N
 2               c1ccc2nc3c(nc2c1)sc1ccccc13      N
 3  O=C(O)CCC(=O)c1ccc2c(c1)C(C(=O)O)CC2 (stereo unspecified)      Y
 4  O=C1C=C/C(=C/[C@H]2SSC=C[C@]23C=CC(=O)C3)C1      N
 5  c1cc2c3c(c1)[C@@H]1O[C@@H]1c1cccc(c1-3)[C@@H]1O[C@H]21      N
 6  CC1NC(/C(=C/c2ccccc2O)NC(=O)c2ccccc2)OC1=O (stereo unspecified)      N
 7      O=c1cc(NNc2cccc(Cl)c2)[nH]c(=O)[nH]1      N
 8  O=C(c1ccc2ccccc2c1)N(Cc1cccnc1)C(=S)N(Cc1cccnc1)C(=O)c1ccc2ccccc2c1      N
 9  CCN(CC)CCCNc1nc(=O)[nH]c(C)c1C(=O)Nc1ccc2c(c1)c1ccccc1n2CC      N
10       O=C(O)CNC(=O)c1ccc([As](=O)(O)O)cc1      N
11        Cc1cc2c(c(C(N)=O)c1C)-c1ccccc1C2=O      N

====

- System: DLD-1
- assay.procedure: NCI tumour cell line growth inhibition, 48 h
The source made the active and inactive calls. Rule as the data show it: active = GI50 up to about 1.1 µM and inactive = higher.
quantity.kind: GI50

> print(dat)
                                   compound  system.under.test  recorded.measurement
1        Cc1cc2c(c(C(N)=O)c1C)-c1ccccc1C2=O              DLD-1   > 100 µM (inactive)
2  COC(=O)C(C(=O)C(=O)NC1=C(Cl)C(=O)c2ccccc2C1=O)c1csc(-n2nc(-c3ccccc3)cc2-c2ccccc2)n1 (stereo not drawn)              DLD-1   > 100 µM (inactive)
3  CCCCCCCCCCC(O)C1CCC(C(O)CCC(O)C2CCC(CCCCCCC[C@H](O)CC3=C[C@@H](C)OC3=O)O2)O1 (stereo partly drawn)              DLD-1    54.8 µM (inactive)
4  CCc1cc(CCC(=O)Nc2ccccc2[N+](=O)[O-])nc(S)n1              DLD-1   > 100 µM (inactive)
5  C=C1C[C@@H](O)C[C@@]2(C)C[C@@H]3OC(=O)C(=C)[C@@H]3C[C@H]12              DLD-1    3.85 µM (inactive)
6  CC(=O)OC1(Sc2ccccc2)CC2[C@H]3COC(C)(C)O[C@H]3CC[C@@]2(C)CC1=O (stereo partly drawn)              DLD-1    65.2 µM (inactive)
7  CC(C)=CC(=O)C1c2cccc(O)c2C(=O)c2c(O)cc(C)cc21 (stereo not drawn)              DLD-1    2.87 µM (inactive)
8  C=CC1(c2ccccc2Cl)N/C(=C/OCC)CO1 (stereo not drawn)              DLD-1    33.5 µM (inactive)

====

- Tested on: NCI-H460
- assay.procedure: NCI tumour cell line growth inhibition, 48 h
The source made the active and inactive calls. No stated cut-off is given here; in the data, active = GI50 up to about 1.1 µM and inactive = higher.
quantity.kind: GI50

> print(dat)
                                   compound  recorded.measurement
1             Cc1ccnc2nc3[nH]c4ccccc4c3cc12   > 100 µM (inactive)
2         Cc1ccc(C(=O)/C=C/c2ccccc2O)c(C)c1   > 100 µM (inactive)
3      O=C(O)c1cc(/C=C/c2ccc(O)c(O)c2)ccc1O   > 100 µM (inactive)
4            O=C1CCSC(=S)N1c1ccc(Br)c(Cl)c1    21.8 µM (inactive)
5  C[n+]1ccc(-c2cc[n+](C)cc2)cc1 [PARAQUAT DICHLORIDE]    9.42 µM (inactive)
6  O=C1c2c(ccc3c2CCC3)CC1Cc1ccc2c(c1)CCC2 (stereo unspecified)    33.8 µM (inactive)
